Molecular target: T1, human CTLA-4, full-length, expressed on transfected Expi293 cells (human, UniProt P16410 36-223)
T1 construct: whole, on cells
T1 sequence (P16410 36-223): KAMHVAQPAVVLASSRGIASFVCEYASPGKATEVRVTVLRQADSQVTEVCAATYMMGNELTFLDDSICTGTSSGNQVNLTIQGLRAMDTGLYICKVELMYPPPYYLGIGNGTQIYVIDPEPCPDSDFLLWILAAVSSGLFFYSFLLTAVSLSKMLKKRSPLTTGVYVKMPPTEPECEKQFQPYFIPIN
Test: flow cytometry, 100 nM, Expi293 cells with human CTLA-4
measure: MFI
Write down the value, and be sure its unit follows.

Asked: Need MFI of variant ICOSL IgV-Fc fusion N52R/N57Y/Q100R (Fc fusion) DTQEKEVRAMVGSDVELSCACPEGSRFDLNDVYVYWQTSESKTVVTYHIPQRSSLEYVDSRYRNRALMSPAGMLRGDFSLRLFNVTPQDEQKFHCLVLSRSLGFQEVLSVEVTLHVAANFSVGSGGGGSEPKSSDKTHTCPPCPAPEAEGAPSVFLFPPKPKDTLMISRTPEVTCVVVDVSHEDPEVKFNWYVDGVEVHNAKTKPREEQYNSTYRVVSVLTVLHQDWLNGKEYKCKVSNKALPAPIEKTISKAKGQPREPQVYTLPPSREEMTKNQVSLTCLVKGFYPSDIAVEWESNGQPENNYKTTPPVLDSDGSFFLYSKLTVDKSRWQQGNVFSCSVMHEALHNHYTQKSLSLSPG , thanks.
Given back: 4270 MFI

Values compiled from patent US20230235012A1.
